MEASUREMENT_TARGET: T1, murine uPAR (form not stated) (mouse, UniProt P35456 24-297, limits assumed)
T1 construct: also called mouse uPAR
T1 sequence (looked up): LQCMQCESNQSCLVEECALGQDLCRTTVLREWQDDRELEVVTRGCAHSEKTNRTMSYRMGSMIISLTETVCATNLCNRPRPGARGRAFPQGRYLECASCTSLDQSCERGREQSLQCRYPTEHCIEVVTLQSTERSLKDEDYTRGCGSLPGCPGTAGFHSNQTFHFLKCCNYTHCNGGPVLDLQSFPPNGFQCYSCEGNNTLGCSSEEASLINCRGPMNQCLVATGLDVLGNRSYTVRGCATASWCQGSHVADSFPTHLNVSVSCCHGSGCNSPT
PROCEDURE_TEXT: summary column Murine X-reactivity
MEASURE_NAME: binding result

anti-uPAR monoclonal antibody 1.41.1 (antibody, V domains shown) VH: QVQLVESGGGVVQPGRSLRLSCAAPGFTFSSYGMHWVRQAPGKGLEWVAVIWYDGSQKYYADSVKGRFTISRDNSKNTLYLQMNSLRAEDTAVYYCARGMTYYYYYGMDVWGQGTTVTVSS VL: EIVMTQSPAILSVSPGERATLSCRASQSVSSKLDWYQQKPGQAPRLLIYGASTRATGIPARFSGSGSGTEFTLTISSLQSEDFAVYYCQQYNNWPRTFGQGTKVEIK	no binding
anti-uPAR monoclonal antibody 1.61.1 (antibody, V domains shown) VH: EVQLVESGGGLVQPGGSLRLSCAASGFTFSSYDMHWVRQATGKGLEWVSAIGTAGDTYYPGSVKGRFTISRENAKNSLYLQMNSLRAGDTAVYYCAREGDYSNYFTRVRGVTYGMDVWGQGTTVTVSS VL: DIQMTQSPSSLSASVGDRVTITCRASQGISKYLAWFQQKPGKAPKSLIYGASSLQSGVPSKFSGSGSGTDFTLTISSLQPEDFATYYCQQYNSYPLTFGGGTKVEIK	no binding
